system: SK-OV-3 ovarian; assay: NCI-60 one-dose screen, 48 h (100 = growth as untreated, 0 = no growth, -100 = all killed); conditions: 10 µM
About 83,000 compounds went through this panel and 20% of them were active in at least one assay; those are over-represented in the sample as a whole.
MEASURED_ATTRIBUTE: growth (%)

>>> numeric_result("Cc1ccc(CCCC(=O)O)c(C)c1")
97.7
>>> numeric_result("CC(=O)C1CCCCC1")
103
>>> numeric_result("O=C(/C=C\\c1ccc(O)cc1)c1ccccc1")
108
>>> numeric_result("CCNc1nc2c(cnn2C)c(=O)[nH]1")
96.2
>>> numeric_result("CCS(=O)(=O)CCCl")
104
>>> numeric_result("COc1cc2nn(-c3ccccc3N)nc2cc1OC")
102
>>> numeric_result("CN(C)c1ccc(CNC(C(=O)c2ccccc2)c2ccccc2)cc1 (configuration not stated)")
103
